As shown below, each of these molecules has a reported EC50 value.
- target or test system: GLP-1R (Homo sapiens, UniProt P43220)
- Sequence (P43220 24-463): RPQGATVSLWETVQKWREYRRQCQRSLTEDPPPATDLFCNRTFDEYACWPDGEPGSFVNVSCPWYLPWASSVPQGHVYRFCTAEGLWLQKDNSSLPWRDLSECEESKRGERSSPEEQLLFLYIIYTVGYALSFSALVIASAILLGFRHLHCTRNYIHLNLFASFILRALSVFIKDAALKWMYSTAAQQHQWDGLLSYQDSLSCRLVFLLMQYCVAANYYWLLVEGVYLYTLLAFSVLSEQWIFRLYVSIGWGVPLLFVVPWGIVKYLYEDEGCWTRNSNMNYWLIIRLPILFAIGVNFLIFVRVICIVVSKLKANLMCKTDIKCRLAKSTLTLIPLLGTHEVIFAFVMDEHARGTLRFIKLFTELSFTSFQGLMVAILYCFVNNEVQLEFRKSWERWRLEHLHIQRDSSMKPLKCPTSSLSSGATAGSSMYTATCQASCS
- method description: GLP-1R agonist cAMP stimulation assay (HTRF cAMP)
- experimental context: HEK293 cell line expressing GLP-1 target; HTRF cAMP agonist mode, 30 min at RT
Give the quantity in nM, number only.

Example results:
molecule: Cc1n[nH]c2ccc(NC(=O)c3ccc4nc(CN5CC=C(c6cccc(OCc7ccc(Cl)cc7F)n6)CC5)n(CC5CCO5)c4c3)cc12 (stereo not drawn)
target or test system: GLP-1R (Homo sapiens, UniProt P43220)
measured metric: EC50
meas value: 5.78
--
molecule: Cc1n[nH]c2c(F)cc(C(=O)Nc3ccc4c(c3)nc(CN3CC=C(c5cccc(OCc6ccc(Cl)cc6F)n5)CC3)n4C[C@@H]3CCO3)cc12
target or test system: GLP-1R (Homo sapiens, UniProt P43220)
measured metric: EC50
meas value: 0.17

Consider now this further molecule.
// query Endpoint output: EC50 of `O=C(NCCc1ccc(O)cc1)c1ccc2c(c1)nc(CN1CCC(c3cccc(OCc4ccc(Cl)cc4F)n3)CC1)n2C[C@@H]1CCO1` . Value?
// result 25.6
